molecular target: HLA-A*24 (human); experiment: UV-exchange b2m ELISA
Endpoint label: peptide exchange yield

Binder: LYLKLWNLI
peptide exchange yield: 50 to 75%

Query: Reported peptide exchange yield, binder SYALLTYMI : ____
Reply: > 75%

Query: Subsequent entry: YFDKVVTL
Reply: 20 to 49%

Query: Now the binder YYKSTSSAF
Reply: 50 to 75%

Query: Now the same for RYFKGLVF
Reply: 50 to 75%

Query: What do you have for TYIESASEL ?
Reply: 50 to 75%

Query: And for FFPPTRQMGLLF ?
Reply: > 75%

Query: Also check KFVDSTFYL
Reply: > 75%

Query: Try the binder VYEDQVGKF
Reply: 20 to 49%

Query: Now try EFGSLHLEFL .
Reply: < 20%

All values here come from patent US20170165338A1.
